molecular target: VLA-4 (Homo sapiens, UniProt P05556+P13612); experiment: In vitro binding assay: 51Cr-labeled Jurkat cells to solid phase-bound CS-1 peptide (SEQ ID NO:5); type: cell-based; set-up: inflammatory cells that contain the VLA-4 receptor [Jurkat cells; host or cells: Jurkat cells (human T lymphoblastic line); settings: Table 1; normalized IC50 potency relative to standard peptide SEQ ID NO:6 (=1); Jurkat cells, CS-1
Sequence (P13612 34-1032): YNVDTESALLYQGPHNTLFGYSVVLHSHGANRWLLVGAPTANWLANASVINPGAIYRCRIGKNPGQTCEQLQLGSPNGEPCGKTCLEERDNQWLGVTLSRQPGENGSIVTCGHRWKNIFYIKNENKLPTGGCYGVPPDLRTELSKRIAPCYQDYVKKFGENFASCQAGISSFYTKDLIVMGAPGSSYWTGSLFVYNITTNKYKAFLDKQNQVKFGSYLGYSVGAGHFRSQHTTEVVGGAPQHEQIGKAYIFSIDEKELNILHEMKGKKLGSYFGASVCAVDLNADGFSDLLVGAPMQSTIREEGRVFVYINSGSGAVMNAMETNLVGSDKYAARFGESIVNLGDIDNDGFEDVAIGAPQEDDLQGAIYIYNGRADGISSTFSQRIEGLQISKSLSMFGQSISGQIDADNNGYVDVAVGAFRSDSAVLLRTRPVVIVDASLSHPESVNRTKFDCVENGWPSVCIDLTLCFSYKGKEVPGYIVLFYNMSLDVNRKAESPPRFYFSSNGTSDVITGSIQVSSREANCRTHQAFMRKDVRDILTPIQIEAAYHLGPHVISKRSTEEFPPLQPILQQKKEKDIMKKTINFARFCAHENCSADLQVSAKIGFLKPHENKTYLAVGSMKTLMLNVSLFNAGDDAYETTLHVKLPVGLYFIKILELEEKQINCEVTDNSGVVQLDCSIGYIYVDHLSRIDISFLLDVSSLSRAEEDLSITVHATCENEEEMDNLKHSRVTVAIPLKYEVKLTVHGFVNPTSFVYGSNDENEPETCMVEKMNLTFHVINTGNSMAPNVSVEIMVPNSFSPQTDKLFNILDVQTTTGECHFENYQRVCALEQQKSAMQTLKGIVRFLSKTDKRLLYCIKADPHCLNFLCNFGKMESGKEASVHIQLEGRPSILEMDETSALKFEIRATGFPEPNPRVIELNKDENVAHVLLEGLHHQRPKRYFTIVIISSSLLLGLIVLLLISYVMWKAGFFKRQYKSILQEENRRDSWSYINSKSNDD
Sequence (P05556 21-798): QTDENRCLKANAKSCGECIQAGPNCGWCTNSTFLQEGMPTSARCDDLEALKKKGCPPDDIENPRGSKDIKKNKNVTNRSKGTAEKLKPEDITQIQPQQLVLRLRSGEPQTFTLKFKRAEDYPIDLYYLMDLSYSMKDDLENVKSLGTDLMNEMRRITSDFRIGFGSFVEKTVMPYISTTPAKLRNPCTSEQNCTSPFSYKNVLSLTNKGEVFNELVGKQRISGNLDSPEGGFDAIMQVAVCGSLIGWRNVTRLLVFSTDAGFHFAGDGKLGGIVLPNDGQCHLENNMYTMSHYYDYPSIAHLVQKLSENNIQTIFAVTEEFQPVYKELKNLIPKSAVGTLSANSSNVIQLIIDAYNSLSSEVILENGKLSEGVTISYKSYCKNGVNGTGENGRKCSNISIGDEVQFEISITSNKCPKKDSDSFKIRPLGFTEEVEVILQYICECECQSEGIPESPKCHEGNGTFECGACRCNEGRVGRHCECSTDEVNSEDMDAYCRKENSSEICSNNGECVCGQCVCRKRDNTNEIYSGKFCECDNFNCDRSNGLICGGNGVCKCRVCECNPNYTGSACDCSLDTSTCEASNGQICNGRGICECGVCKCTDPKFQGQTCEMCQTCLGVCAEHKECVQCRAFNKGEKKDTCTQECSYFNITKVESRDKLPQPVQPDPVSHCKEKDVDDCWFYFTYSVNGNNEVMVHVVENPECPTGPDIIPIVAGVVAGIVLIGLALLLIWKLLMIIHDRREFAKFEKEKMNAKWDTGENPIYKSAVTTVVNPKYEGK
Positions of bridges follow the written chain, without caps; N, C: chain ends. Residues, ends and D or L forms follow the SMILES beside them.
MEASURED ATTRIBUTE: Relative Potency

Worked cases, answers included:
>  <MOLECULE>
NC(=O)[C@@H]1CSSC[C@H](NC(=O)[C@@H](N)Cc2ccccc2)C(=O)N[C@@H](CC(=O)O)C(=O)N[C@@H](Cc2ccccc2)C(=O)N2CCC[C@H]2C(=O)N1 [SEQ ID NO:12, FCDFPC-NH2] (H-FCDFPC-NH2; disulfide 2-6)

>  <TARGET SYSTEM>
VLA-4 (Homo sapiens, UniProt P05556+P13612)

>  <MEASURED VALUE>
131

$$$$
>  <MOLECULE>
CC(C)C[C@@H]1NC(=O)[C@H](Cc2ccccc2)NC(=O)[C@H](CCC(=O)O)NC(=O)[C@@H](N)CSSC[C@@H](C(N)=O)NC(=O)[C@@H]2CCCN2C(=O)[C@H](Cc2ccccc2)NC(=O)[C@H](CC(=O)O)NC1=O [SEQ ID NO:20, CEFLDFPC-NH2] (H-CEFLDFPC-NH2; disulfide 1-8)

>  <TARGET SYSTEM>
VLA-4 (Homo sapiens, UniProt P05556+P13612)

>  <MEASURED VALUE>
19

$$$$
>  <MOLECULE>
CC(C)C[C@@H]1NC(=O)[C@@H](N)CSSC[C@@H](C(N)=O)NC(=O)[C@H](Cc2ccccc2)NC(=O)[C@H](CC(=O)O)NC1=O [SEQ ID NO:28, CLDFC -NH2] (H-CLDFC-NH2; disulfide 1-5)

>  <TARGET SYSTEM>
VLA-4 (Homo sapiens, UniProt P05556+P13612)

>  <MEASURED VALUE>
1

$$$$
>  <MOLECULE>
CC(C)C[C@@H]1NC(=O)[C@H](Cc2ccccc2)NC(=O)[C@H](CCC(=O)O)NC(=O)[C@@H](N)CSSC[C@@H](C(N)=O)NC(=O)[C@H](CO)NC(=O)[C@@H]2CCCN2C(=O)[C@H](Cc2ccccc2)NC(=O)[C@H](CC(=O)O)NC1=O [SEQ ID NO:24, CEFLDFPSC-NH2] (H-CEFLDFPSC-NH2; disulfide 1-9)

>  <TARGET SYSTEM>
VLA-4 (Homo sapiens, UniProt P05556+P13612)

>  <MEASURED VALUE>
6

$$$$
>  <MOLECULE>
CC(C)C[C@H](N)C(=O)N[C@@H](CC(=O)O)C(=O)N[C@@H](Cc1ccccc1)C(N)=O [LDF-NH2] (H-Leu-Asp-Phe-NH2)

>  <TARGET SYSTEM>
VLA-4 (Homo sapiens, UniProt P05556+P13612)

>  <MEASURED VALUE>
0

$$$$

A. CC(=O)N[C@H]1CSSC[C@@H](C(N)=O)NC(=O)[C@@H]2CCCN2C(=O)[C@H](Cc2ccccc2)NC(=O)[C@H](CC(=O)O)NC(=O)[C@H](CC(C)C)NC(=O)[C@H](Cc2ccccc2)NC1=O [SEQ ID NO:11, AcCFLDFPC-NH2] (Ac-CFLDFPC-NH2; disulfide 1-7)
B. CC(=O)N[C@@H](Cc1ccccc1)C(=O)N[C@H]1CSSC[C@@H](C(=O)N2CCC[C@H]2C(N)=O)NC(=O)[C@H](CC(=O)O)NC1=O [SEQ ID NO:29, AcFCDCP-NH2] (Ac-FCDCP-NH2; disulfide 2-4)
Prompt: Name the one with the greater Relative Potency value, either A or B as given. In your reply, give the label of the chosen option.
Completion: A
